molecular target: human Factor XIa (Homo sapiens (Human)); assay: Factor XIa Assay; assay type: biochemical; conditions: read-out: FXIa Ki
Sequence (P03951 388-625): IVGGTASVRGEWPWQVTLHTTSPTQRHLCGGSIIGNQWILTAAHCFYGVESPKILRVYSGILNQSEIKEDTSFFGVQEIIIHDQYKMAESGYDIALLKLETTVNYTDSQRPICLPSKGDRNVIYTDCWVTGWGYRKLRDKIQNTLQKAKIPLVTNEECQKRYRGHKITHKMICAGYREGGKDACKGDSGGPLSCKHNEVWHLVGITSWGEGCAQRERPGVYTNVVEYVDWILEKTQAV
Sequence (P03951 19-387 partner): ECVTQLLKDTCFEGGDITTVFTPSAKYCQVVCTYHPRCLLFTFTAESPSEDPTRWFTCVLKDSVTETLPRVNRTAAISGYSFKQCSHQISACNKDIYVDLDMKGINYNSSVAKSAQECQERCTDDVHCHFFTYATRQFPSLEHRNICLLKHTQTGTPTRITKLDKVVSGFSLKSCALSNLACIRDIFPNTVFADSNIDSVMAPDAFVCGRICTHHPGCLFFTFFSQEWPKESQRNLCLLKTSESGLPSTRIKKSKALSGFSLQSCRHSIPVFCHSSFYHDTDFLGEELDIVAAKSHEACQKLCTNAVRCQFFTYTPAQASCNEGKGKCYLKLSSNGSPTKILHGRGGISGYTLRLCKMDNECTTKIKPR
The molecules listed here are annotated with their Ki.
Write down the numeric answer in µM and omit the unit.

Answered cases to consult:
Molecule	Ki / µM
O=C1Nc2ccc(Cl)cc2C2(CCN(C(=O)[C@H](Cc3ccccc3)NC(=O)c3ccc4[nH]ncc4c3)C2)O1 (some centres unmarked)	0.0484
O=C1Nc2ccc(Cl)c(F)c2[C@@]2(CCCN(C(=O)[C@H](Cc3ccccc3)NC(=O)c3ccc4[nH]c(=O)cc(O)c4c3)C2)O1	0.00011
O=C1Nc2ccc(Cl)cc2[C@@]2(CCCN(C(=O)[C@H](CC3CC3)NC(=O)c3ccc(F)c(F)c3)C2)O1	0.925
Cc1nccnc1C(=O)N[C@@H](Cc1ccccc1)C(=O)N1CCC2(C1)OC(=O)Nc1ccc(Cl)cc12 (some centres unmarked)	3.32
O=C1Nc2ccc(Cl)cc2C2(CCN(C(=O)[C@H](Cc3ccccc3)NC(=O)c3cnc4[nH]c(=O)oc4c3)C2)O1 (some centres unmarked)	4.16
CCOP(=O)(OCC)c1ccc(C(=O)N[C@H](Cc2ccccc2)C(=O)N2CCC[C@@]3(C2)OC(=O)Nc2ccc(Cl)c(F)c23)cc1	8.75
O=C1Nc2ccc(Cl)cc2C2(CCN(C(=O)[C@H](Cc3ccccc3)NC(=O)c3ccc4c(c3)C(=O)NC4)C2)O1 (some centres unmarked)	0.328
O=C1Nc2ccc(Cl)c(F)c2[C@@]2(CCCN(C(=O)[C@H](Cc3ccccc3)NC(=O)c3ccc(B(O)O)s3)C2)O1	0.00788
Nc1n[nH]c2cc(C(=O)N[C@@H](Cc3ccccc3)C(=O)N3CC[C@@]4(C3)OC(=O)Nc3ccc(Cl)c(F)c34)ccc12	0.001
O=C(Nc1ccc(C(=O)N[C@@H](Cc2ccccc2)C(=O)N2CCC3(C2)OC(=O)Nc2ccc(Cl)cc23)cc1)OC[C@@H]1CCCO1 (some centres unmarked)	0.00548

Task: What Ki value was documented for this molecule, O=C1Nc2ccc(Cl)cc2C2(CCN(C(=O)[C@H](Cc3ccccc3)NC(=O)c3ccc4[nH]ccc4n3)C2)O1 (some centres unmarked) ?
Result: 0.488

Task: Name the recorded Ki for `O=C1Nc2ccc(Cl)c(F)c2[C@@]2(CCCN(C(=O)[C@H](Cc3ccccc3)NC(=O)c3ccc(NCC(F)(F)F)nc3)C2)O1` .
Result: 0.133

Task: Form field: reported Ki of O=C1Nc2ccc(Cl)cc2C2(CCN(C(=O)[C@H](Cc3ccccc3)NC(=O)c3ccnc(O)c3)C2)O1 (some centres unmarked)
Result: 0.169

###

Molecular target: human Factor XIa (Homo sapiens (Human))
Assay: Factor XIa Assay
Assay type: biochemical
Details: read-out: FXIa Ki
Description: The effectiveness of a compound of the present invention as an inhibitor of Coagulation Factor XIa can be determined using a relevant purified serine protease, and an appropriate synthetic substrate. The rate of hydrolysis of the chromogenic or fluorogenic substrate by the relevant serine protease was measured both in the absence and presence of compounds of the present invention. […] A decrease in the rate of fluorescence change in the presence of inhibitor is indicative of enzyme inhibition. […]
Lab note: compare Ki with 40 nM, writing Satisfied if less and Not satisfied if equal or more.

Task: Quick check: Ki of CNC(=O)Nc1ccc(C(=O)N[C@@H](Cc2ccccc2)C(=O)N2CCC3(C2)OC(=O)Nc2ccc(Cl)cc23)cc1 (stereo partly shown) under 40 nM?
Result: Satisfied

Task: Is it true that Ki reported for `O=C1Nc2ccc(Cl)c(F)c2[C@@]2(CCCN(C(=O)[C@H](Cc3ccccc3)NC(=O)c3ccc(-c4ncc[nH]4)s3)C2)O1` is less than 40 nM?
Result: Satisfied

###

Biological target: UniProt:P03951
Assay: Factor XIa Assay
Type: biochemical
Conditions: purified human Factor XIa 40 pM, Z-Gly-Pro-Arg-AFC 100 μM, pH 7.4; read-out: FXIa Ki
Experimental: The effectiveness of a compound of the present invention as an inhibitor of Coagulation Factor XIa can be determined using a relevant purified serine protease, and an appropriate synthetic substrate. The rate of hydrolysis of the chromogenic or fluorogenic substrate by the relevant serine protease was measured both in the absence and presence of compounds of the present invention. […] A decrease in the rate of fluorescence change in the presence of inhibitor is indicative of enzyme inhibition. […]
Measurement Kind: pKi
// pKi: -log10(molar conc.)

Molecule	Measurement Kind	Result Number
COC(=O)Nc1ccc(C(=O)N[C@H](C(=O)N2CCC3(C2)OC(=O)Nc2ccc(Cl)cc23)[C@H](C)c2ccccc2)cc1 (stereo partly drawn)	pKi	5.37
Nc1nc2ccc(C(=O)N3C[C@H](Cc4ccccc4)C[C@H]3C(=O)N3CC[C@@]4(C3)OC(=O)Nc3ccc(Cl)cc34)cc2s1	pKi	5.73
COC(=O)Nc1ccc(C(=O)N[C@@H](CCNC(=O)OC2CCC2)C(=O)N2CCC[C@@]3(C2)OC(=O)Nc2ccc(Cl)cc23)cc1	pKi	7.32

Task: Find pKi (UniProt:P03951) for the entry `COC(=O)Nc1ccc(C(=O)N[C@@H](Cc2ccc(F)cn2)C(=O)N2CCC[C@@]3(C2)OC(=O)Nc2ccc(Cl)c(F)c23)cc1`
Result: 8.55

Task: Form: Entry = COC(=O)Nc1ccc(-c2nc(C(Cc3ccccc3)C(=O)N3CCCC4(C3)OC(=O)Nc3ccc(Cl)c(F)c34)[nH]c2Cl)cc1 (single isomer, unassigned) [Example 126A] | System = UniProt:P03951 | pKi = ____
Result: 5.73

Task: Record `COC(=O)Nc1ccc(C(=O)N[C@@H](CC2CC2)C(=O)N2CC[C@@]3(C2)OC(=O)Nc2ccc(Cl)c(F)c23)cc1` : what is its pKi with UniProt:P03951?
Result: 7.90

###

Molecular target: human Factor XIa (Homo sapiens (Human))
Assay: Factor XIa Assay
Format: biochemical
Settings: purified human Factor XIa 40 pM, Z-Gly-Pro-Arg-AFC 100 μM, pH 7.4; read-out: FXIa Ki
Experimental: The effectiveness of a compound of the present invention as an inhibitor of Coagulation Factor XIa can be determined using a relevant purified serine protease, and an appropriate synthetic substrate. The rate of hydrolysis of the chromogenic or fluorogenic substrate by the relevant serine protease was measured both in the absence and presence of compounds of the present invention. […] A decrease in the rate of fluorescence change in the presence of inhibitor is indicative of enzyme inhibition. […]
Measured pKi by item
Convention used: pKi is expressed as -log10 of the molar concentration.

Molecule	Test Target	pKi
COC(=O)Nc1ccc(C(=O)N[C@@H](Cc2cncn2C)C(=O)N2CCC3(C2)OC(=O)Nc2ccc(Cl)cc23)cc1 (stereo partly drawn) [Example 30]	human Factor XIa (Homo sapiens (Human))	7.75
COC(=O)Nc1ccc(C(=O)N[C@@H](CCC(F)(F)F)C(=O)N2CCC[C@@]3(C2)OC(=O)Nc2ccc(Cl)c(F)c23)cc1 [Example 36]	human Factor XIa (Homo sapiens (Human))	7.07
COC(=O)Nc1ccc(C(=O)N[C@@H](Cc2cncn2C)C(=O)N2CCC[C@@]3(C2)OC(=O)Nc2ccc(Cl)cc23)cc1 [Example 53]	human Factor XIa (Homo sapiens (Human))	7.81
O=C1Nc2ccc(Cl)c(F)c2[C@@]2(CCCN(C(=O)[C@H](Cc3cncnc3)NC(=O)c3ccc4[nH]c(=O)ccc4c3)C2)O1 [Example 113]	human Factor XIa (Homo sapiens (Human))	7.81

Task: Any idea what its pKi is? The molecule is COC(=O)Nc1ccc(C(=O)N[C@@H](Cc2ccc(C(=O)c3ccccc3)cc2)C(=O)N2CCC3(C2)OC(=O)Nc2ccc(Cl)cc23)cc1 (stereo partly drawn) [Example 39]
Result: 7.41

Task: pKi lookup needed for COC(=O)Nc1ccc(C(=O)N[C@@H](CC2CC2)C(=O)N2CCC[C@@]3(C2)OC(=O)Nc2ccc(Cl)c(F)c23)cc1 [Example 63] , thanks.
Result: 8.25

###

Listed here: items and their measured Ki.
molecular target: human Factor XIa (Homo sapiens (Human)); experiment: Factor XIa Assay; format: biochemical; settings: read-out: FXIa Ki
Quick note: give the figure in nM, leave out the unit.

Use these answered entries as a reference point.
Compound	Test Target	Uom	Ki
Nc1ccc2cc(C(=O)N[C@@H](Cc3ccccc3)C(=O)N3CCC4(C3)OC(=O)Nc3ccc(Cl)cc34)ccc2n1 (some centres unmarked)	human Factor XIa (Homo sapiens (Human))	nM	4050
Nc1ccc(C(=O)N[C@@H](CC2CC2)C(=O)N2CCC[C@@]3(C2)OC(=O)Nc2ccc(Cl)cc23)cn1	human Factor XIa (Homo sapiens (Human))	nM	72.2
O=C1CS(=O)(=O)c2cc(C(=O)N[C@@H](Cc3ccccc3)C(=O)N3CCC4(C3)OC(=O)Nc3ccc(Cl)cc34)ccc2N1 (some centres unmarked)	human Factor XIa (Homo sapiens (Human))	nM	145
O=C1Nc2ccc(Cl)cc2C2(CCN(C(=O)[C@H](Cc3ccccc3)NC(=O)c3ccc(NC(=O)C(F)(F)F)cc3)C2)O1 (some centres unmarked)	human Factor XIa (Homo sapiens (Human))	nM	594
N=C(N)Nc1ccc(C(=O)N[C@@H](Cc2ccccc2)C(=O)N2CCC3(C2)OC(=O)Nc2ccc(Cl)cc23)cc1 (some centres unmarked)	human Factor XIa (Homo sapiens (Human))	nM	454
NC(=O)c1n[nH]c2cc(C(=O)N[C@@H](Cc3ccccc3)C(=O)N3CC[C@@]4(C3)OC(=O)Nc3ccc(Cl)cc34)ccc12	human Factor XIa (Homo sapiens (Human))	nM	2310
Nc1n[nH]c2cc(C(=O)N[C@@H](Cc3ccccc3)C(=O)N3CCC[C@@]4(C3)OC(=O)Nc3ccc(Cl)cc34)ccc12	human Factor XIa (Homo sapiens (Human))	nM	0.62

As a next step, examine the compound that follows.
Task: Fill blank: measured Ki of the compound `NC(=O)c1ccc(C(=O)N[C@@H](Cc2ccccc2)C(=O)N2CCC[C@@]3(C2)OC(=O)Nc2ccc(Cl)c(F)c23)s1` is ____.
Result: 0.97
